Origin of measurements: ChEMBL document CHEMBL1125209

Reported Max response values for a set of compounds
- Organism: Cavia porcellus
- ASSAY_INFO: Percentage response in phosphoinositide hydrolysis relative to maximal response elicited by CCK-8 in guinea pig pancreatic acini
- Format: functional
*1 amine or outer side, *2 acyl side, *3 side chain or, on linkers, in order; H or OH if unused. Where a SMILES comes first, the peptide text is derived from it. Side-chain parts run from the residue outwards. The star is where a group is joined. NH(1-naphthyl) = c1ccc2c(N*)cccc2c1; NH(2,6-Me2-phenyl) = Cc1cccc(C)c1N*; NH(4-Cl-phenyl) = Clc1ccc(N*)cc1; NH(4-Me-phenyl) = Cc1ccc(N*)cc1; X3 = O=[N+]([O-])c1ccccc1N*; Boc = CC(C)(C)OC(=O)*; CO = O=C([*:1])[*:2]; X2 = CC(C)c1ccccc1N*; NHPh = c1ccc(N*)cc1; NHtBu = CC(C)(C)N*
ENDPOINT: Max response (%)

| COMPOUND | ENDPOINT | MEASURED_RESULT |
| --- | --- | --- |
| CC(C)(C)OC(=O)N[C@@H](Cc1c[nH]c2ccccc12)C(=O)N[C@@H](CCCCNC(=O)Nc1cccc2ccccc12)C(=O)N[C@@H](CC(=O)O)C(=O)N[C@@H](Cc1ccccc1)C(N)=O (Boc-WK([CO-NH(1-naphthyl)])DF-NH2) | Max response | 103 |
| Cc1ccc(NC(=O)NCCCC[C@H](NC(=O)[C@H](Cc2c[nH]c3ccccc23)NC(=O)OC(C)(C)C)C(=O)N[C@@H](CC(=O)O)C(=O)N[C@@H](Cc2ccccc2)C(N)=O)cc1 (Boc-WK([CO-NH(4-Me-phenyl)])DF-NH2) | Max response | 91 |
| Cc1cccc(C)c1NC(=O)NCCCC[C@H](NC(=O)[C@H](Cc1c[nH]c2ccccc12)NC(=O)OC(C)(C)C)C(=O)N[C@@H](CC(=O)O)C(=O)N[C@@H](Cc1ccccc1)C(N)=O (Boc-WK([CO-NH(2,6-Me2-phenyl)])DF-NH2) | Max response | 40 |
| CC(C)(C)OC(=O)N[C@@H](Cc1c[nH]c2ccccc12)C(=O)N[C@@H](CCCCNC(=O)Nc1ccc(Cl)cc1)C(=O)N[C@@H](CC(=O)O)C(=O)N[C@@H](Cc1ccccc1)C(N)=O (Boc-WK([CO-NH(4-Cl-phenyl)])DF-NH2) | Max response | 91 |
| CC(C)(C)NC(=O)NCCCC[C@H](NC(=O)[C@H](Cc1c[nH]c2ccccc12)NC(=O)OC(C)(C)C)C(=O)N[C@@H](CC(=O)O)C(=O)N[C@@H](Cc1ccccc1)C(N)=O (Boc-WK([CO-NHtBu])DF-NH2) | Max response | 73 |
| CC(C)c1ccccc1NC(=O)NCCCC[C@H](NC(=O)[C@H](Cc1c[nH]c2ccccc12)NC(=O)OC(C)(C)C)C(=O)N[C@@H](CC(=O)O)C(=O)N[C@@H](Cc1ccccc1)C(N)=O (Boc-WK([CO-X2])DF-NH2) | Max response | 85 |
| CC(C)(C)OC(=O)N[C@@H](Cc1c[nH]c2ccccc12)C(=O)N[C@@H](CCCC/N=C(\S)Nc1ccccc1Cl)C(=O)N[C@@H](CC(=O)O)C(=O)N[C@@H](Cc1ccccc1)C(N)=O | Max response | 83 |
| CC(C)(C)OC(=O)N[C@@H](Cc1c[nH]c2ccccc12)C(=O)N[C@@H](CCCCNC(=O)Nc1ccccc1[N+](=O)[O-])C(=O)N[C@@H](CC(=O)O)C(=O)N[C@@H](Cc1ccccc1)C(N)=O (Boc-WK([CO-X3])DF-NH2) | Max response | 100 |
| CC(C)(C)OC(=O)N[C@@H](Cc1c[nH]c2ccccc12)C(=O)N[C@@H](CCCCNC(=O)Nc1ccccc1)C(=O)N[C@@H](CC(=O)O)C(=O)N[C@@H](Cc1ccccc1)C(N)=O (Boc-WK([CO-NHPh])DF-NH2) | Max response | 96 |
